Please provide measured IC50 for the entries that follow.
Target: KRas WT (Homo sapiens, UniProt P01116)
Construct: Biotinylated KRas (corresponding to amino acids 1-169, produced at Accelegan Inc.); biotin (biotinylated); purchased Accelegan Inc
Sequence (P01116 1-169 isoform P01116-2): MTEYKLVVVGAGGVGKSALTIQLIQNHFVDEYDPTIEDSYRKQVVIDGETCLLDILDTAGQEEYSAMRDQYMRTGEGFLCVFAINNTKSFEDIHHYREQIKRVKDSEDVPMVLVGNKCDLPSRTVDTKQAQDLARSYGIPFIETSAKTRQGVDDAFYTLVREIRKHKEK
Test: KRas binding assay, TR-FRET displacement of Cy5 labelled tracer
Conditions: 60-minute incubation at room temperature, 1% DMSO, pH 7.5
Method: This Example illustrates that exemplary compounds of the present invention bind to KRas and are capable of displacing a labeled tracer ligand occupying the KRas binding site. […] The ability of a compound to bind to KRas was measured using a TR-FRET displacement assay. […] After a 60-minute incubation at room temperature, the reaction was measured using a BMG LABTECH CLARIO star Plus via TR-FRET. […]
Give bare numbers, in nM.

The following molecules have reported results that may help.
[
  {
    "Molecule": "CCc1c(F)ccc2cc(O)cc(-c3ncc4c(NC[C@@H]5C[C@H]5C(=O)n5ccc(C)n5)nc(OC[C@@]56CCCN5C[C@H](F)C6)nc4c3F)c12 [Example 158]",
    "IC50 [nM]": 13
  },
  {
    "Molecule": "CCc1c(F)ccc2cc(O)cc(-c3ncc4c(N5C[C@H]6CC[C@@]6(C(=O)n6ccc(C)n6)C5)nc(OC[C@@]56CCCN5C[C@H](F)C6)nc4c3F)c12 [Example 105]",
    "IC50 [nM]": 58
  },
  {
    "Molecule": "CCc1c(F)ccc2cc(O)cc(-c3ncc4c(NC[C@@H]5[C@H](C(=O)n6ccc(C)n6)C5(C)C)nc(OC[C@@]56CCCN5C[C@H](F)C6)nc4c3F)c12 [Example 109]",
    "IC50 [nM]": 73
  },
  {
    "Molecule": "CN(CCCC(=O)Oc1c(F)cccc1F)c1nc(OC[C@@]23CCCN2C[C@H](F)C3)nc2c(F)c(-c3ccc(F)c4sc(N)c(C#N)c34)c(Cl)cc12 [Example 265]",
    "IC50 [nM]": 35
  },
  {
    "Molecule": "Cc1ccn(C(=O)C2CCCN(c3nc(OC[C@@]45CCCN4C[C@H](F)C5)nc4c(F)c(-c5csc6ccc(N)nc56)c(Cl)cc34)CC2)n1 (stereo partly drawn) [Example 215]",
    "IC50 [nM]": 11400
  }
]

Now look at this entry.
So for CCc1c(F)ccc2cc(O)cc(-c3ncc4c(N5CCOCC(C(=O)n6ccc(C)n6)C5)nc(OC[C@@]56CCCN5C[C@H](F)C6)nc4c3F)c12 (stereo partly drawn) [Example 77] , the logged IC50 turned out to be 161

* * *

Molecular target: KRas-mediated phosphorylation of ERK in A549 cells (Homo sapiens, UniProt P01116, G12S)
Construct: pERK HTRF read-out
Sequence (P01116 1-188 isoform P01116-2 G12S): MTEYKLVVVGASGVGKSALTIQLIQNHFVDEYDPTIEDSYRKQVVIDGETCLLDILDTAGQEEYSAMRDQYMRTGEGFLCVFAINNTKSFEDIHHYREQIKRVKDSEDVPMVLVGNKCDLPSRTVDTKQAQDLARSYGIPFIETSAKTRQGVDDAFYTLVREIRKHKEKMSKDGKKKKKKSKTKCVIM
Assay: Inhibition of KRas-mediated phosphorylation of ERK (HTRF), A549 cells
Format: cell-based
Details: HTRF pERK, 3 h incubation
Observed Property: IC50 (nM)
Answers are plain numbers, in nM.

[
  {
    "Compound": "CCc1c(F)ccc2cc(O)cc(-c3ncc4c(N5CCC(C(=O)N(C)C(C)=O)CC5)nc(OC[C@@]56CCCN5C[C@H](F)C6)nc4c3F)c12",
    "Experimental Value": 445
  }
]

Now look at this entry.
So for Cc1ccn(C(=O)C23CCC(CN(c4nc(OC[C@@]56CCCN5C[C@H](F)C6)nc5c(F)c(-c6ccc(F)c7sc(N)c(C#N)c67)c(Cl)cc45)C2)C3)n1 (stereo partly drawn) , the logged IC50 turned out to be 143
